species on record: Rattus norvegicus; experiment: Open TG-GATES - Regimen: Single; type: toxicity, organism-based, Sprague-Dawley; design: regimen Single, gender Male, age 6 weeks; settings: in vivo, po, 1000 mg/kg, 9 h, tissue Blood, route gavage, dose level High
# Mono listing for each entry below

// worked examples, Mono included
- TEST_SMILES: "CN/C(=N/CCSCc1nc[nH]c1C)NC#N"
  RESULT: "2.4%"
- TEST_SMILES: "COC(=O)C1=C(C)NC(C)=C(C(=O)OC)C1c1ccccc1[N+](=O)[O-]"
  RESULT: "4.8%"
- TEST_SMILES: "CNC(=C[N+](=O)[O-])NCCSCc1ccc(CN(C)C)o1"
  RESULT: "2.4%"
- TEST_SMILES: "Cc1nnc2n1-c1ccc(Cl)cc1C(c1ccccc1Cl)=NC2"
  RESULT: "2.4%"

Now consider the entry below.
Entry under test: `O=C(OC[C@H]1O[C@@H](OC(=O)c2cc(O)c(O)c(OC(=O)c3cc(O)c(O)c(O)c3)c2)[C@H](OC(=O)c2cc(O)c(O)c(OC(=O)c3cc(O)c(O)c(O)c3)c2)[C@@H](OC(=O)c2cc(O)c(O)c(OC(=O)c3cc(O)c(O)c(O)c3)c2)[C@@H]1OC(=O)c1cc(O)c(O)c(OC(=O)c2cc(O)c(O)c(O)c2)c1)c1cc(O)c(O)c(OC(=O)c2cc(O)c(O)c(O)c2)c1` . Its Mono was 8%

---

species: Rattus norvegicus; experiment: Open TG-GATES - Regimen: Daily Repeat; format: toxicity, organism-based, Sprague-Dawley; design: regimen Daily Repeat, gender Male, age 6 weeks; conditions: in vivo, po, 1000 mg/kg, […], tissue Plasma, route gavage, dose level High, time 14 day
OBSERVATION_TYPE: CRE (mg/dL)
The answer is to be given in mg/dL; state only the numeric part.

Below, each entry is followed by its recorded CRE result.
- COMPOUND: "CN/C(=N/CCSCc1nc[nH]c1C)NC#N [CIMETIDINE]"
  UNIT_ANNOTATION: "mg/dL"
  CRE: 0.4
- COMPOUND: "O=C(OC[C@H]1O[C@@H](OC(=O)c2cc(O)c(O)c(OC(=O)c3cc(O)c(O)c(O)c3)c2)[C@H](OC(=O)c2cc(O)c(O)c(OC(=O)c3cc(O)c(O)c(O)c3)c2)[C@@H](OC(=O)c2cc(O)c(O)c(OC(=O)c3cc(O)c(O)c(O)c3)c2)[C@@H]1OC(=O)c1cc(O)c(O)c(OC(=O)c2cc(O)c(O)c(O)c2)c1)c1cc(O)c(O)c(OC(=O)c2cc(O)c(O)c(O)c2)c1 [TANNIC ACID]"
  UNIT_ANNOTATION: "mg/dL"
  CRE: 0.5
- COMPOUND: "Cc1nnc2n1-c1ccc(Cl)cc1C(c1ccccc1Cl)=NC2 [TRIAZOLAM]"
  UNIT_ANNOTATION: "mg/dL"
  CRE: 0.2
- COMPOUND: "CCOc1ccc(NC(C)=O)cc1 [PHENACETIN]"
  UNIT_ANNOTATION: "mg/dL"
  CRE: 0.2
- COMPOUND: "COC(=O)C1=C(C)NC(C)=C(C(=O)OC)C1c1ccccc1[N+](=O)[O-] [NIFEDIPINE]"
  UNIT_ANNOTATION: "mg/dL"
  CRE: 0.2

Now examine the next entry.
Per the records, this compound ( CNC(=C[N+](=O)[O-])NCCSCc1ccc(CN(C)C)o1 [RANITIDINE] ) has CRE equal to 0.5
